System: L. rhamnosus GG strain
Assay: Antibiotic susceptibility test, K-B agar method (disc diffusion); also: key: S (susceptible) represents sensitivity; I (intermediate) represents moderate sensitivity; R (resistance) represents drug resistance
Type: cell-based, Lactobacillus rhamnosus
Conditions: standard antibiotic disc, 37°C, 48 h; CLSI criteria, breakpoints in mm per antibiotic in c1-c3
measured_attribute: Susceptibility (class by Diameter of Inhibition Zone), GG Group

chemical_string	measured_value
NC[C@H]1O[C@H](O[C@H]2[C@H](O)[C@@H](O[C@H]3O[C@H](CO)[C@@H](O)[C@H](N)[C@H]3O)[C@H](N)C[C@@H]2N)[C@H](O)[C@@H](O)[C@@H]1O	R
[H]/N=C(/N)N[C@H]1[C@H](O)[C@@H](O)[C@H](O[C@@H]2O[C@@H](C)[C@](O)(C=O)[C@H]2O[C@@H]2O[C@@H](CO)[C@H](O)[C@@H](O)[C@@H]2NC)[C@@H](N/C(N)=N\[H])[C@@H]1O	I
CC[C@H]1OC(=O)[C@H](C)[C@@H](O[C@H]2C[C@@](C)(OC)[C@@H](O)[C@H](C)O2)[C@H](C)[C@@H](O[C@@H]2O[C@H](C)C[C@H](N(C)C)[C@H]2O)[C@](C)(O)C[C@@H](C)C(=O)[C@H](C)[C@@H](O)[C@]1(C)O	S
CN(C)[C@@H]1C(O)=C(C(N)=O)C(=O)[C@@]2(O)C(O)=C3C(=O)c4c(O)cccc4[C@@](C)(O)[C@H]3C[C@@H]12	S
CN[C@H](CC(C)C)C(=O)N[C@H]1C(=O)N[C@@H](CC(N)=O)C(=O)N[C@H]2C(=O)N[C@H]3C(=O)N[C@H](C(=O)N[C@H](C(=O)O)c4cc(O)cc(O)c4-c4cc3ccc4O)[C@H](O)c3ccc(c(Cl)c3)Oc3cc2cc(c3O[C@@H]2O[C@H](CO)[C@@H](O)[C@H](O)[C@H]2O[C@H]2C[C@](C)(N)[C@H](O)[C@H](C)O2)Oc2ccc(cc2Cl)[C@H]1O	R

---

Tested on: L. rhamnosus GG strain
Assay: Antibiotic susceptibility test, K-B agar method (disc diffusion); also: key: S (susceptible) represents sensitivity; I (intermediate) represents moderate sensitivity; R (resistance) represents drug resistance
Format: cell-based, Lactobacillus rhamnosus
Settings: standard antibiotic disc, 37°C, 48 h; CLSI criteria, breakpoints in mm per antibiotic in c1-c3
measured_attribute: Susceptibility (class by Diameter of Inhibition Zone), GG Group

> print(dat)
                            chemical.string  measured.value
1  O=C(N[C@H](CO)[C@H](O)c1ccc([N+](=O)[O-])cc1)C(Cl)Cl               S
2  CC1(C)S[C@@H]2[C@H](NC(=O)[C@H](N)c3ccccc3)C(=O)N2[C@H]1C(=O)O               R
3  CCC[C@@H]1C[C@@H](C(=O)N[C@@H]([C@H]2O[C@H](SC)[C@H](O)[C@@H](O)[C@H]2O)[C@H](C)Cl)N(C)C1               S
